All figures here come from PubChem BioAssay (NCI).

Test: NCI Yeast Anticancer Drug Screen. Data for the sgs1 mgt1 strain (AID 161);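 also: 0% = growth of cultures given vehicle only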
Conditions: S. cerevisiae sgs1 mgt1 strain, at 50.0 µM, stronger effect = higher value
About 79,000 compounds went through this panel and 15% of them were active in at least one assay; those are over-represented in the sample as a whole. Active and inactive are the calls of the source. Rule as the data show it: active = growth inhibition above about 70%; inactive = the rest.
growth inhibition by entry:
attribute-measured: growth inhibition

compound: CCCCCC(CCCCC)=C(C#N)C(=O)OCC
measured-value: 7.55% (inactive)
--
compound: CCC(=O)CCc1ccc(OC)cc1
measured-value: -3.85% (inactive)
--
compound: OC1COC(C2CCCO2)OC1 (stereo unspecified)
measured-value: -2.35% (inactive)
--
compound: Nc1cc(Br)cc2c1-c1ccc(Br)cc1C2=O
measured-value: 1.35% (inactive)
--
compound: CC(=O)c1ccc(OCc2ccccc2)c(OCc2ccccc2)c1
measured-value: 22.8% (inactive)
--
compound: CCCCCCCCCCCCCCCO
measured-value: -2.45% (inactive)
--
compound: CCOC(=O)CCC(C(=O)OCC)N1C(=O)c2ccccc2C1=O (stereo unspecified)
measured-value: 8.25% (inactive)
--
compound: CC(=O)OCC(=O)[C@@]1(O)CC[C@H]2[C@@H]3C[C@@H](C)[C@@]4(O)CC5(CC[C@]4(C)[C@H]3[C@@H](O)C[C@@]21C)OCC(C)(C)CO5
measured-value: 27.1% (inactive)
--
compound: COC1OCCCO1
measured-value: -6.45% (inactive)
--
compound: CC(=O)NNc1nc(C)c(C(=O)NNC(=O)C(=O)Nc2ccc([N+](=O)[O-])cc2[N+](=O)[O-])s1
measured-value: -30.9% (inactive)
--
compound: NNC(=S)N/N=C(/C(=O)Nc1cc(Cl)ccc1Cl)C1C(=O)Nc2ccccc2S1=O (stereo unspecified)
measured-value: -5.1% (inactive)
--
compound: CCn1c(C)cc(=NC(=O)c2ccccc2O)n1-c1ccccc1
measured-value: 25.6% (inactive)
--
compound: C=C(C)[C@@H]1CC[C@@H](C)C[C@H]1O
measured-value: -1.55% (inactive)
--
compound: Nc1ccccc1OCOCOc1ccccc1N
measured-value: -7% (inactive)
--
compound: CC[n+]1ccc(/C=C\c2c(Cl)cccc2Cl)cc1
measured-value: 5.65% (inactive)
--
compound: Nc1c(Cl)cccc1C(=O)c1ccccc1C(=O)O
measured-value: 5.4% (inactive)
--
compound: O=C1c2ccccc2C(=O)c2c1ccc1c2N=C(c2ccc(F)cc2)CC(c2ccc(Cl)c(Cl)c2)N1 (stereo unspecified)
measured-value: 5% (inactive)
--
compound: Clc1ccccc1C1OCCCO1
measured-value: -22.4% (inactive)
--
compound: Nc1ncnc2c1[nH]c(=S)n2C1OC(CO)C(O)C1O (stereo unspecified)
measured-value: 3.1% (inactive)
--
compound: CC(=O)CCCCCCCCCCCCCC(C)=O
measured-value: -21.1% (inactive)
--
compound: CCOC(=O)C(N=Nc1ccc(C)cc1Br)C(C)=O (stereo unspecified)
measured-value: 24.9% (inactive)
--
compound: CC(C)(C)C(=O)C(=O)O
measured-value: -3.7% (inactive)
--
compound: OCCN(CCO)c1cc(/C=C/c2c3ccccc3cc3ccccc23)nc2ccccc12
measured-value: 96.1% (active)
--
compound: CCOC(=O)C(CNCc1ccccc1)C1CCCCC1 (stereo unspecified)
measured-value: 18.2% (inactive)
--
compound: Ic1ccc(-n2cccc2)cc1
measured-value: -1.7% (inactive)
--
compound: CCCCCCCCCCCCN1CCCN(CCCCCCCCCCCC)CC1
measured-value: 7.45% (inactive)
